- Protocol text: Antiviral activity against Human respiratory syncytial virus A strain Long infected in human Hep2 cells assessed as reduction in virus induced cytopathic effect in presence of 10% FBS after 5 days by CCK-8 assay
- Type: functional, cell-based
- Assay context: HEp-2, 120 h
pEC50: −log10 of the molar value.
Entry flag: 1 if pEC50 reaches 8; 0 if it does not.

{"columns": ["Smiles text", "Class"],
 "data": [
  ["NC1(CNc2cc(N3CCS(=O)(=O)c4ccccc4C3)nc3ccc(Cl)cc23)COC1", 0],
  ["NC1(CNc2nc(N3CCS(=O)(=O)c4ccccc4C3)nc3ccccc23)COC1", 0],
  ["NC1(CNc2cc(N3CCS(=O)(=O)c4ccccc4C3)nc3ccc(CO)cc23)COC1", 1],
  ["Cc1ccc2c(c1)S(=O)(=O)CCN(c1cc(NCC3(N)COC3)c3cc(C)ccc3n1)C2", 1]
]}

---

- Protocol text: Cmax in CD-1 mouse lung at 10 mg/kg/day, po administered via gavage and measured up to 24 hrs by LC/MS/MS analysis
- Type: ADME, organism-based
- Set-up: dose 10 mg/kg/day, route oral
Readout: Cmax (µg/mL)

{"columns": ["Compound", "Units label", "Recorded result"],
 "data": [
  ["Cc1ccc2nc(N3CCS(=O)(=O)c4ccccc4C3)nc(NCC3(N)COC3)c2c1 [ZIRESOVIR]", "µg/mL", 22.7]
]}

---

- Protocol text: Cytotoxicity against human Hep2 cells assessed as reduction in cell viability after 5 days by CCK-8 assay
- Format: cell-based
- Assay context: HEp-2 cells
Note to self: CC50 at 120 h under 60 µM means satisfied, ties and anything higher get not satisfied.

{"columns": ["Smiles text", "Class"],
 "data": [
  ["Cc1ccc2nc(N3CCS(=O)(=O)c4cc(Cl)ccc4C3)cc(NCC3(N)COC3)c2c1", "satisfied"],
  ["Cc1ccc2nc(N3CCS(=O)(=O)c4ccccc4C3)nc(NCC3(N)CCC3)c2c1", "satisfied"],
  ["Cc1ccc2nc(N3CCS(=O)(=O)c4c(F)cccc4C3)cc(NCC3(N)COC3)c2c1", "satisfied"],
  ["NC1(CNc2cc(N3CCS(=O)(=O)c4ccccc4C3)cc3ccccc23)COC1", "not satisfied"],
  ["Cc1cc2c(NCC3(N)COC3)cc(N3CCS(=O)(=O)c4ccccc4C3)nc2c(F)c1F", "satisfied"],
  ["NC1(CNc2cc(N3CCS(=O)(=O)c4ccccc4C3)nc3ccc(CO)cc23)COC1", "not satisfied"],
  ["NC1(CNc2nc(N3CCS(=O)(=O)c4ccccc4C3)nc3ccccc23)COC1", "not satisfied"],
  ["COc1cccc2c1S(=O)(=O)CCN(c1cc(NCC3(N)COC3)c3cc(C)ccc3n1)C2", "not satisfied"],
  ["Cc1ccc2nc(N3CCS(=O)(=O)c4ccc(F)cc4C3)cc(NCC3(N)COC3)c2c1", "not satisfied"],
  ["Cc1ccc2nc(N3CCS(=O)(=O)c4ccccc4C3)cc(NCC3(N)COC3)c2c1", "not satisfied"],
  ["NC1(CNc2cc(N3CCS(=O)(=O)c4ccccc4C3)nc3ccc(Cl)cc23)COC1", "not satisfied"],
  ["Cc1ccc2nc(N3CCS(=O)(=O)c4cc(F)ccc4C3)cc(NCC3(N)COC3)c2c1", "not satisfied"],
  ["COc1ccc2c(c1)CN(c1cc(NCC3(N)COC3)c3cc(C)ccc3n1)CCS2(=O)=O", "not satisfied"],
  ["Cc1ccc2nc(N3CCS(=O)(=O)c4ccc(O)cc4C3)cc(NCC3(N)COC3)c2c1", "not satisfied"],
  ["COc1ccc2c(c1)S(=O)(=O)CCN(c1cc(NCC3(N)COC3)c3ccccc3n1)C2", "not satisfied"],
  ["Cc1ccc2nc(N3CCS(=O)(=O)c4ccccc4C3)nc(NCC3(N)CC3)c2c1", "satisfied"],
  ["COc1ccc2c(c1)S(=O)(=O)CCN(c1cc(NCC3(N)COC3)c3cc(C)ccc3n1)C2", "not satisfied"],
  ["Cc1cc2c(NCC3(N)COC3)cc(N3CCS(=O)(=O)c4ccccc4C3)nc2cc1F", "not satisfied"],
  ["Cc1ccc2cc(N3CCS(=O)(=O)c4ccccc4C3)nc(NCC3(N)COC3)c2c1", "not satisfied"],
  ["Cc1ccc2nc(N3CCS(=O)(=O)c4ccccc4C3)nc(NCC(C)(C)N)c2c1", "satisfied"],
  ["Cc1ccc2c(c1)S(=O)(=O)CCN(c1cc(NCC3(N)COC3)c3cc(C)ccc3n1)C2", "not satisfied"],
  ["Cc1ccc2nc(N3CCS(=O)(=O)c4ccccc4C3)cc(NCC3(N)COC3)c2c1F", "not satisfied"],
  ["NC1(CNc2cc(N3CCS(=O)(=O)c4ccccc4C3)nc3ccncc23)COC1", "not satisfied"],
  ["Cc1ccc2nc(N3CCS(=O)(=O)c4ccccc4C3)nc(NCC3(N)COC3)c2c1", "not satisfied"],
  ["Cc1ccc2c(c1)S(=O)(=O)CCN(c1cc(NCC3(N)COC3)c3ccccc3n1)C2", "not satisfied"],
  ["CC(C)(O)c1ccc2nc(N3CCS(=O)(=O)c4ccccc4C3)cc(NCC3(N)COC3)c2c1", "not satisfied"]
]}

Source listed as ChEMBL document CHEMBL4364260.
